- EXPERIMENT_NOTES: self-splicing fitness, log relative to wild type (ln ratio); higher = more splicing; Tetrahymena group I intron in knt gene, E. coli kanamycin selection, DiMSum; sequences stand for … in CUCUCU…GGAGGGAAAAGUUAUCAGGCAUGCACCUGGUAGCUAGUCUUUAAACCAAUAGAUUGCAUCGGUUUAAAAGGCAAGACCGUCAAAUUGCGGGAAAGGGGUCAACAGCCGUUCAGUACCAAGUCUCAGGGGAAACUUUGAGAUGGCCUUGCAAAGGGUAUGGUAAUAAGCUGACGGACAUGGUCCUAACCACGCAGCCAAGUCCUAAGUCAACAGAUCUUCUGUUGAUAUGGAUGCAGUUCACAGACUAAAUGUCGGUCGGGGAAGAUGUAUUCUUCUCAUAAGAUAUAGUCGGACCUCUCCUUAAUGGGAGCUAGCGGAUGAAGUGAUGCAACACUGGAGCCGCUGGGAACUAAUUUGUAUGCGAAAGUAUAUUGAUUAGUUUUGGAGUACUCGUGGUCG;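 also: selection with 25 µg/mL kanamycin versus none on LB agar overnight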
- TEST_SETTINGS: 30 °C

CHAIN_SEQUENCE | self-splicing fitness (ln)
GCUUAGCAAUAUUACGGAUU | -1.15
GACCAGCAAUAUUACGGUGG | -2.38
UUCCAGCAAUAUUACGGCUA | 0.12
UAGAAGCAAUAUUACGGGAU | -4.15
CCCGAGCAAUAUUACGAGUC | -2.67
